The reported numbers originate from patent US20260242478A1.

Phage binding ELISA, Anti-CD28 Fab signal in the presence of CD28 values by entry
- tested_system: T1, Anti-CD28 Fab (SEQ ID NOs: 696, 697)
- T1 construct: In the phage ELISA the Fab was biotinylated and captured on neutravidin coated plates
- T1 sequence (VH, as listed by the source, chain 1 of 2): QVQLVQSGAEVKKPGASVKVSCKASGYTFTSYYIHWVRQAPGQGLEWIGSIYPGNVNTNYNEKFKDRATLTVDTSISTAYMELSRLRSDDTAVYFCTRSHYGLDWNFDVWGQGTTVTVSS
- T1 sequence (VL, as listed by the source, chain 2 of 2): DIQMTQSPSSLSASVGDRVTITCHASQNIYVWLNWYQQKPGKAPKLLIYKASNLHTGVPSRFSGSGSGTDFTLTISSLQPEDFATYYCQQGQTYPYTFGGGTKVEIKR
- assay_overview: phage binding ELISA on captured anti-CD28 Fab; wells pre-incubated with CD28 antigen as competitor
property_measured: Phage binding ELISA, Anti-CD28 Fab signal in the presence of CD28

[
  {
    "binder": "YCAGHASEYLQKCL [Phage-1328 (Peptide-87 library sequence, SEQ ID NO: 1644)]",
    "experimental_result": 0.06
  },
  {
    "binder": "YCAGHLDEYMEKCL [Phage-1332 (Peptide-87 library sequence, SEQ ID NO: 1648)]",
    "experimental_result": 0.07
  },
  {
    "binder": "YCDGHSQIYMSKCL [Phage-1329 (Peptide-87 library sequence, SEQ ID NO: 1645)]",
    "experimental_result": 0.06
  },
  {
    "binder": "YCDGHTWMYKQKCL [Phage-1333 (Peptide-87 library sequence, SEQ ID NO: 1649)]",
    "experimental_result": 0.08
  },
  {
    "binder": "YCDGHWPGYLWKCL [Phage-1330 (Peptide-87 library sequence, SEQ ID NO: 1646)]",
    "experimental_result": 0.06
  },
  {
    "binder": "YCDGHLPEYMEKCL [Phage-1327 (Peptide-87 library sequence, SEQ ID NO: 1643)]",
    "experimental_result": 0.07
  },
  {
    "binder": "YCTGWQVAYMQNCF [Phage-1331 (Peptide-87 library sequence, SEQ ID NO: 1647)]",
    "experimental_result": 0.06
  }
]
